# measurementTarget: Tyrosine-protein kinase BTK (Homo sapiens)
# experimentalDetails: Inhibition of recombinant human His-tagged full length BTK expressed in baculovirus using biotin labeled peptide substrate after 1 hr by HRTF kinase/TR-FRET assay
measure: IC50 (nM)

CN(C)C(=O)c1ccc(-c2nc3c(-c4cccc(-n5ccc6cc(C7CC7)cc(F)c6c5=O)c4CO)ccnc3[nH]2)cc1 = 33.3
O=c1c2c(F)cc(C3CC3)cc2ccn1-c1cccc(-c2ccnc3[nH]c(C4=CCN(C5COC5)CC4)cc23)c1CO = 31.4
Nc1cccc(-c2cc3c(-c4cccc(-n5ccc6cc(C7CC7)cc(F)c6c5=O)c4CO)ccnc3[nH]2)c1 = 110

a. O=c1c2c(F)cc(C3CC3)cc2ccn1-c1cccc(-c2ccnc3[nH]c(C4=CCNCC4)cc23)c1CO
b. CN(C)C(=O)N1CC=C(c2cc3c(-c4cccc(-n5ccc6cc(C7CC7)cc(F)c6c5=O)c4CO)ccnc3[nH]2)CC1
c. O=c1c2c(F)cc(C3CC3)cc2ccn1-c1cccc(-c2ccnc3[nH]c(-c4ccc(CN5CCOCC5)cc4)cc23)c1CO
d. O=C(C1CC1)N1CC=C(c2cc3c(-c4cccc(-n5ccc6cc(C7CC7)cc(F)c6c5=O)c4CO)ccnc3[nH]2)CC1
Hey, quick one: sort these by IC50, largest value first please. Please write the labels in the order that was asked for.
a, c, d, b
(a: 28.3 nM, c: 18.1 nM, d: 10.4 nM, b: 6 nM)

###

# measurementTarget: Tyrosine-protein kinase BTK (Homo sapiens, UniProt Q06187)
# Sequence (Q06187 whole entry): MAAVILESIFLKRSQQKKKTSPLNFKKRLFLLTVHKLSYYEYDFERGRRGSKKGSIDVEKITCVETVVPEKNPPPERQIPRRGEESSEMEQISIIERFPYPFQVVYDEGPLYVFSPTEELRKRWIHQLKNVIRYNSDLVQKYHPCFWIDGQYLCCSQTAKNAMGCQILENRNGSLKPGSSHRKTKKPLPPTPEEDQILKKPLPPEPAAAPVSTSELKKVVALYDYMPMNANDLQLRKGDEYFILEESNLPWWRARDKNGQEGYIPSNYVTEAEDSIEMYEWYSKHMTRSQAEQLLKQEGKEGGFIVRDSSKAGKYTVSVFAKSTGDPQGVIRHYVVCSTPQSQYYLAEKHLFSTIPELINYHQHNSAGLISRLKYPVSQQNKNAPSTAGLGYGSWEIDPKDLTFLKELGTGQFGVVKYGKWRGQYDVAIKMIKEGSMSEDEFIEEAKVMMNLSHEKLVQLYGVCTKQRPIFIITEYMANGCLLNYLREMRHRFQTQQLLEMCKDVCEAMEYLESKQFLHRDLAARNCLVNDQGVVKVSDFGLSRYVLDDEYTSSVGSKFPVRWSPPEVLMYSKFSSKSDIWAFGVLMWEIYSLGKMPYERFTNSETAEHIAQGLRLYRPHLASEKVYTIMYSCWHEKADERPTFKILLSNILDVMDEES
# experimentalDetails: Inhibition of recombinant human His-tagged full length BTK expressed in baculovirus using biotin labeled peptide substrate after 1 hr by HRTF kinase/TR-FRET assay
measure: IC50 (nM)

COc1ccc(-c2cc3c(-c4cccc(-n5ccc6cc(C7CC7)cc(F)c6c5=O)c4CO)ccnc3[nH]2)cc1 = 27.3

1. O=c1c2c(F)cc(C3CC3)cc2ccn1-c1cccc(-c2ccnc3[nH]c(-c4ccc(O)cc4)cc23)c1CO
2. CC(=O)c1ccc(-c2cc3c(-c4cccc(-n5ccc6cc(C7CC7)cc(F)c6c5=O)c4CO)ccnc3[nH]2)cc1
Form: Entry with minimum IC50 (choose one): 1 / 2 Identify your selection by its label.
2

###

# measurementTarget: UniProt Q06187
# experimentalDetails: Inhibition of recombinant human His-tagged full length BTK expressed in baculovirus using biotin labeled peptide substrate after 1 hr by HRTF kinase/TR-FRET assay
measure: IC50 (nM)

I. COc1ccc(-c2cc3c(-c4cccc(-n5ccc6cc(C7CC7)cc(F)c6c5=O)c4CO)ccnc3[nH]2)cn1
II. Cn1ccc(-c2cc3c(-c4cccc(-n5ccc6cc(C7CC7)cc(F)c6c5=O)c4CO)ccnc3[nH]2)n1
III. O=C(N1CC=C(c2cc3c(-c4cccc(-n5ccc6cc(C7CC7)cc(F)c6c5=O)c4CO)ccnc3[nH]2)CC1)N1CCOCC1
Rank order required: IC50, descending. # format: label list in the order the request specifies
I, II, III
(I: 68.3 nM, II: 20.6 nM, III: 7.3 nM)
